molecular target: KRAS WT (Homo sapiens (Human), UniProt P01116); assay: KRAS WT Biochemical Assay, BODIPY-GDP Exchange TR-FRET (Example 501; 3 nM KRAS WT, 3 nM SOS1, 60-minute incubation); settings: read-out: KRas HTRF IC50
Sequence (P01116-2 other isoform, or with tags, fused parts or gaps): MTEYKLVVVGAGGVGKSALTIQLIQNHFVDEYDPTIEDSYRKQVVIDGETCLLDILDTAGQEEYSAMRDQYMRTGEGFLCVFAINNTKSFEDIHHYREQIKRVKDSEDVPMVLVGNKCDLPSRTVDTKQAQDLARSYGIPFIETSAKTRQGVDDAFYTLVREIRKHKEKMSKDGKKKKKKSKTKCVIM
OBSERVABLE: pIC50
Formally, pIC50 is defined as -log10 of the concentration c, with c in mol/L.

KRAS WT (Homo sapiens (Human), UniProt P01116) assay, compound Cc1cc(N)c(Cl)c(-c2nc3c4c(nc(OC[C@@]56CCCN5C[C@H](F)C6)nc4c2Cl)N2C[C@H]4CC[C@H](N4)[C@H]2[C@H](C)O3)c1C(F)(F)F (single isomer, unassigned) [Compound 240 (atrop. 2)] , recorded pIC50 = 7.82

Tested on KRAS WT (Homo sapiens (Human), UniProt P01116): Cc1c(F)c(N)cc(-c2nc3c4c(nc(OC[C@]5(CN6CC7(COC7)C6)CC5(F)F)nc4c2F)N2C[C@H]4CC[C@H](N4)[C@H]2[C@H](C(F)(F)F)O3)c1C(F)(F)F (stereo in doubt) [255 a] . Observed pIC50: 8.86

Here `Cc1cc(N)c(F)c(-c2nc3c4c(nc(OCC5(CN6CCOCC6)CC5)nc4c2F)N2C[C@H]4CC[C@H](N4)[C@H]2[C@H](C)O3)c1C(F)(F)F` was tested on KRAS WT (Homo sapiens (Human), UniProt P01116), and its pIC50 came to 8.09

KRAS WT (Homo sapiens (Human), UniProt P01116) data for `CO[C@@H]1CCN(CC2(COc3nc4c5c(nc(-c6cc(N)nc(C)c6C(F)(F)F)c(F)c5n3)O[C@@H](C)[C@@H]3[C@@H]5CC[C@H](CN43)N5)CC2)C[C@@H]1F` ; its pIC50: 7.63

pIC50 value, target or system KRAS WT (Homo sapiens (Human), UniProt P01116), for Cc1nc(N)cc(-c2nc3c4c(nc(OC[C@@]56CCCN5CC5(CC5(F)F)C6)nc4c2F)N2C[C@H]4CC[C@H](N4)[C@H]2[C@H](C(F)(F)F)O3)c1C(F)(F)F (stereo partly shown) : 8.90

Known value: KRAS WT (Homo sapiens (Human), UniProt P01116) pIC50 of the compound `Cc1c(F)c(N)c(F)c(-c2nc3c4c(nc(OC[C@@H]5C[C@@H](F)CN5C)nc4c2F)N2C[C@H]4CC[C@H](N4)[C@H]2[C@H](C)O3)c1C(F)(F)F` equals 5.31

Measured on KRAS WT (Homo sapiens (Human), UniProt P01116), `C[C@@H]1Oc2nc(-c3cc(N)c(F)c(F)c3CC(F)F)c(F)c3nc(OC[C@@]45CCCN4C[C@H](F)C5)nc(c23)N2C[C@H]3CC[C@H](N3)[C@@H]12` has a documented pIC50 of 8.00

`C#Cc1cccc2cc(O)cc(-c3nc4c5c(nc(OC[C@@]67CCCN6C[C@H](F)C7)nc5c3F)N3C[C@H]5CC[C@H](N5)[C@H]3[C@H](C(F)(F)F)O4)c12` on KRAS WT (Homo sapiens (Human), UniProt P01116) gives pIC50 = 8.98

The compound `Cc1c(F)c(N)cc(-c2nc3c4c(nc(OC[C@@]56CCCN5C[C@H](F)C6)nc4c2F)N2C[C@H]4CC[C@H](N4)[C@H]2[C@@H](C(F)(F)F)O3)c1C(F)(F)F` on KRAS WT (Homo sapiens (Human), UniProt P01116): pIC50 was 5.92

Hey, KRAS WT (Homo sapiens (Human), UniProt P01116) data for `Cc1nc(N)cc(-c2nc3c4c(nc(OCC5(CN6C7CCC6COC7)CC5)nc4c2F)N2C[C@H]4CC[C@H](N4)[C@H]2[C@H](C)O3)c1C(F)(F)F` : pIC50 came out at 7.62
